system: Mycobacterium tuberculosis; assay: Antitubercular activity against Mycobacterium tuberculosis H37Rv assessed as bacterial growth inhibition after 7 days by broth microdilution assay; type: functional; conditions: 168 h, dose 0.03-64 µg/ml, time 7 day

- record smiles: "COC(=O)c1cc(-c2cccc(NC(=O)c3ccc(/C=C/C(=O)c4ccc(Cl)cc4)cc3)c2)on1"
  target or system: "Mycobacterium tuberculosis"
  measurement units: "µg/mL"
  MIC: 0.12
- record smiles: "CC[C@@H](CO)NCCN[C@@H](CC)CO"
  target or system: "Mycobacterium tuberculosis"
  measurement units: "µg/mL"
  MIC: 1
- record smiles: "CO[C@H]1/C=C/O[C@@]2(C)Oc3c(C)c(O)c4c(O)c(c(/C=N/N5CCN(C)CC5)c(O)c4c3C2=O)NC(=O)/C(C)=C\\C=C\\[C@H](C)[C@H](O)[C@@H](C)[C@@H](O)[C@@H](C)[C@H](OC(C)=O)[C@@H]1C"
  target or system: "Mycobacterium tuberculosis"
  measurement units: "µg/mL"
  MIC: 0.03
- record smiles: "COC(=O)c1cc(-c2cccc(NC(=O)c3ccc(/C=C/C(=O)c4ccccc4Cl)cc3)c2)on1"
  target or system: "Mycobacterium tuberculosis"
  measurement units: "µg/mL"
  MIC: 0.25
- record smiles: "COC(=O)c1cc(-c2cccc(NC(=O)c3ccc(/C=C/C(=O)c4ccc5c(c4)OCO5)cc3)c2)on1"
  target or system: "Mycobacterium tuberculosis"
  measurement units: "µg/mL"
  MIC: 2
- record smiles: "COC(=O)c1cc(-c2cccc(NC(=O)c3ccc(/C=C/C(=O)c4ccc(F)cc4)cc3)c2)on1"
  target or system: "Mycobacterium tuberculosis"
  measurement units: "µg/mL"
  MIC: 4
- record smiles: "COC(=O)c1cc(-c2cccc(NC(=O)c3ccc(/C=C/C(=O)c4cccc(Cl)c4)cc3)c2)on1"
  target or system: "Mycobacterium tuberculosis"
  measurement units: "µg/mL"
  MIC: 0.25

---

tested on: Mycobacterium tuberculosis; experiment: Antitubercular activity against Mycobacterium tuberculosis H37Rv assessed as bacterial growth inhibition after 7 days by broth microdilution assay; assay type: functional; conditions: 168 h, dose 0.03-64 µg/ml, time 7 day
Binary call on MIC with cut-off 0.6 µg/mL: strictly below means True, and equality or higher means False.

- record smiles: "CCCOc1ccc(C(=O)/C=C/c2ccc(C(=O)Nc3cccc(-c4cc(C(=O)OC)no4)c3)cc2)cc1"
  category: "True"
- record smiles: "NNC(=O)c1ccncc1"
  category: "True"
- record smiles: "COC(=O)c1cc(-c2cccc(NC(=O)/C=C/c3ccc(Cl)cc3)c2)on1"
  category: "False"
- record smiles: "COC(=O)c1cc(-c2cccc(NC(=O)c3ccc(/C=C/C(=O)c4ccc(C)c([N+](=O)[O-])c4)cc3)c2)on1"
  category: "False"
- record smiles: "COC(=O)c1cc(-c2cccc(NC(=O)c3ccc(/C=C/C(=O)c4ccccc4)cc3)c2)on1"
  category: "False"
- record smiles: "COC(=O)c1cc(-c2cccc(NC(=O)c3ccc(/C=C/C(=O)c4ccc(C)cc4)cc3)c2)on1"
  category: "True"
- record smiles: "COC(=O)c1cc(-c2cccc(NC(=O)c3ccc(/C=C/C(=O)c4ccccc4C)cc3)c2)on1"
  category: "True"
- record smiles: "COC(=O)c1cc(-c2cccc(NC(=O)c3ccc(/C=C/C(=O)c4cccc(OC)c4)cc3)c2)on1"
  category: "False"
- record smiles: "CCOC(=O)c1cc(-c2cccc(OCc3cccc(C(F)(F)F)c3)c2)on1"
  category: "True"
- record smiles: "COC(=O)c1cc(-c2cccc(NC(=O)c3ccc(/C=C/C(=O)c4cccc(Br)c4)cc3)c2)on1"
  category: "False"
- record smiles: "COC(=O)c1cc(-c2cccc(NC(=O)c3ccc(/C=C/C(=O)c4ccc(N5CCOCC5)cc4)cc3)c2)on1"
  category: "True"
- record smiles: "O=C(O)c1ccc(C(=O)/C=C/c2ccc3ccccc3c2)cc1"
  category: "True"
- record smiles: "CCOc1ccc(C(=O)/C=C/c2ccc(C(=O)Nc3cccc(-c4cc(C(=O)OC)no4)c3)cc2)cc1"
  category: "True"
- record smiles: "COC(=O)c1cc(-c2cccc(NC(=O)c3ccc(/C=C/C(=O)c4ccc([N+](=O)[O-])cc4)cc3)c2)on1"
  category: "False"
- record smiles: "COC(=O)c1cc(-c2cccc(NC(=O)c3ccc(/C=C/C(=O)c4ccc(O)cc4)cc3)c2)on1"
  category: "False"

---

This section presents compounds with their documented log10 of MIC values.
test system: Mycobacterium tuberculosis; assay: Antitubercular activity against Mycobacterium tuberculosis H37Rv assessed as bacterial growth inhibition after 7 days by broth microdilution assay; type: functional; conditions: 168 h, dose 0.03-64 µg/ml, time 7 day
quantity: log10 of MIC (log10 of the value in µg/mL)

- compound: "COC(=O)c1cc(-c2cccc(NC(=O)c3ccc(/C=C/C(=O)c4cccc(C(F)(F)F)c4)cc3)c2)on1"
  quantity: "log10 of MIC"
  value measured: 0.00
- compound: "COC(=O)c1cc(-c2cccc(NC(=O)c3ccc(/C=C/C(=O)c4cccc([N+](=O)[O-])c4)cc3)c2)on1"
  quantity: "log10 of MIC"
  value measured: 0.30
- compound: "COC(=O)c1cc(-c2cccc(NC(=O)c3ccc(/C=C/C(=O)c4ccc(OC)c(OC)c4)cc3)c2)on1"
  quantity: "log10 of MIC"
  value measured: 0.00
- compound: "COC(=O)c1cc(-c2cccc(NC(=O)c3ccc(/C=C/C(=O)c4ccc(OC)c([N+](=O)[O-])c4)cc3)c2)on1"
  quantity: "log10 of MIC"
  value measured: 0.00
- compound: "CCOC(=O)c1cc(-c2cccc(NC(=O)c3ccc(/C=C/C(=O)c4ccc(Cl)cc4)cc3)c2)on1"
  quantity: "log10 of MIC"
  value measured: -0.30
- compound: "COc1ccc(OC)c(/C=C/C(=O)c2ccc(Nc3ccnc4cc(Cl)ccc34)cc2)c1"
  quantity: "log10 of MIC"
  value measured: 0.49
- compound: "O=C(/C=C/c1ccc([N+](=O)[O-])o1)c1ccc(N2CCCCC2)cc1"
  quantity: "log10 of MIC"
  value measured: -1.22
- compound: "CCOC(=O)c1cc(COc2cc(C(F)(F)F)nc3cc(C(F)(F)F)cc(C(F)(F)F)c23)on1"
  quantity: "log10 of MIC"
  value measured: -0.41
- compound: "CCCOc1ccc(C(=O)/C=C/c2ccc(C(=O)O)cc2)cc1"
  quantity: "log10 of MIC"
  value measured: 1.51
- compound: "COC(=O)c1cc(-c2cccc(NC(=O)c3ccc(/C=C/C(=O)c4ccc(OC)cc4)cc3)c2)on1"
  quantity: "log10 of MIC"
  value measured: 0.60
- compound: "COC(=O)c1cc(-c2ccc(NC(=O)c3ccc(/C=C/C(=O)c4ccc(Cl)cc4)cc3)cc2)on1"
  quantity: "log10 of MIC"
  value measured: -1.22
- compound: "COC(=O)c1cc(-c2cccc(NC(=O)c3ccc(C4OC4C(=O)c4ccc(Cl)cc4)cc3)c2)on1 (stereo not given)"
  quantity: "log10 of MIC"
  value measured: 0.60
- compound: "COC(=O)c1cc(-c2cccc(NC(=O)c3ccc(/C=C/C(=O)c4ccc(C)c(F)c4)cc3)c2)on1"
  quantity: "log10 of MIC"
  value measured: 0.30
- compound: "O=C(/C=C/c1ccc(-n2ccnc2)cc1)c1ccc(OCc2cc(F)ccc2F)cc1"
  quantity: "log10 of MIC"
  value measured: -0.11
- compound: "CC(C)Cc1ccc(C(=O)/C=C/c2ccc(C(=O)O)cc2)cc1"
  quantity: "log10 of MIC"
  value measured: 1.51
- compound: "COC(=O)c1cc(-c2cccc(NC(=O)c3ccc(/C=C/C(=O)c4cc(OC)c(OC)c(OC)c4)cc3)c2)on1"
  quantity: "log10 of MIC"
  value measured: 0.00
- compound: "O=C(O)c1ccc(/C=C/C(=O)c2ccc(Cl)cc2)cc1"
  quantity: "log10 of MIC"
  value measured: 0.60
- compound: "COC(=O)c1cc(-c2cccc(NC(=O)c3ccc(/C=C/C(=O)c4ccc(F)cc4F)cc3)c2)on1"
  quantity: "log10 of MIC"
  value measured: -0.92
- compound: "CCOC(=O)c1cc(/C=C/c2c(Cl)cncc2Cl)on1"
  quantity: "log10 of MIC"
  value measured: -0.74
- compound: "COC(=O)c1cc(-c2cccc(NC(=O)c3ccc(/C=C/C(=O)c4cccc(F)c4)cc3)c2)on1"
  quantity: "log10 of MIC"
  value measured: 0.30
- compound: "COC(=O)c1cc(-c2cccc(NC(=O)c3ccc(/C=C/C(=O)c4ccc(OC)cc4OC)cc3)c2)on1"
  quantity: "log10 of MIC"
  value measured: -0.60
- compound: "COC(=O)c1cc(-c2cccc(NC(=O)c3ccc(/C=C/C(=O)c4ccccc4OC)cc3)c2)on1"
  quantity: "log10 of MIC"
  value measured: 0.00
- compound: "CN[C@@H]1[C@H](O[C@H]2[C@H](O[C@H]3[C@H](O)[C@@H](O)[C@H](N=C(N)N)[C@@H](O)[C@@H]3N=C(N)N)O[C@@H](C)[C@]2(O)C=O)O[C@@H](CO)[C@H](O)[C@H]1O [STREPTOMYCIN]"
  quantity: "log10 of MIC"
  value measured: -0.30
- compound: "COC(=O)c1cc(-c2cccc(NC(=O)c3ccc(/C=C/C(=O)c4ccc(Br)cc4)cc3)c2)on1"
  quantity: "log10 of MIC"
  value measured: 0.00
- compound: "COC(=O)c1cc(-c2cccc(NC(=O)c3ccc(/C=C/C(=O)c4cccnc4)cc3)c2)on1"
  quantity: "log10 of MIC"
  value measured: 1.81
- compound: "COC(=O)c1cc(-c2cccc(NC(=O)c3ccc(/C=C/C(=O)c4ccc(CC(C)C)cc4)cc3)c2)on1"
  quantity: "log10 of MIC"
  value measured: -0.92
- compound: "COC(=O)c1cc(-c2cccc(NC(=O)c3ccc(/C=C/C(=O)c4cc(F)ccc4F)cc3)c2)on1"
  quantity: "log10 of MIC"
  value measured: 0.00
- compound: "COC(=O)c1cc(-c2cccc(NC(=O)c3ccc(/C=C/C(=O)c4ccccc4Br)cc3)c2)on1"
  quantity: "log10 of MIC"
  value measured: 0.00
- compound: "CCOC(=O)c1cc(-c2cccc(NC(=O)c3cccc(C(F)(F)F)c3)c2)on1"
  quantity: "log10 of MIC"
  value measured: 1.81
- compound: "COC(=O)c1cc(-c2cccc(NC(=O)c3ccc(/C=C/C(=O)c4ccccc4O)cc3)c2)on1"
  quantity: "log10 of MIC"
  value measured: 1.20
- compound: "O=C(/C=C/c1c[nH]c2ccccc12)c1cccs1"
  quantity: "log10 of MIC"
  value measured: 1.70
- compound: "COC(=O)c1cc(-c2cccc(NC(=O)c3ccc(OCc4ccc(Cl)cc4)cc3)c2)on1"
  quantity: "log10 of MIC"
  value measured: 0.00
- compound: "COC(=O)c1cc(-c2cccc(NC(=O)c3ccc(/C=C/C(=O)c4ccc(Cl)cc4Cl)cc3)c2)on1"
  quantity: "log10 of MIC"
  value measured: -0.30
- compound: "COC(=O)c1cc(-c2cccc(NC(=O)c3ccc(/C=C/C(=O)c4cccs4)cc3)c2)on1"
  quantity: "log10 of MIC"
  value measured: 1.51
